Biological target: PSMA (prostate specific membrane antigen) (Homo sapiens, UniProt Q04609 Q04609:44-750)
Sequence (Q04609 44-750, one chain of several): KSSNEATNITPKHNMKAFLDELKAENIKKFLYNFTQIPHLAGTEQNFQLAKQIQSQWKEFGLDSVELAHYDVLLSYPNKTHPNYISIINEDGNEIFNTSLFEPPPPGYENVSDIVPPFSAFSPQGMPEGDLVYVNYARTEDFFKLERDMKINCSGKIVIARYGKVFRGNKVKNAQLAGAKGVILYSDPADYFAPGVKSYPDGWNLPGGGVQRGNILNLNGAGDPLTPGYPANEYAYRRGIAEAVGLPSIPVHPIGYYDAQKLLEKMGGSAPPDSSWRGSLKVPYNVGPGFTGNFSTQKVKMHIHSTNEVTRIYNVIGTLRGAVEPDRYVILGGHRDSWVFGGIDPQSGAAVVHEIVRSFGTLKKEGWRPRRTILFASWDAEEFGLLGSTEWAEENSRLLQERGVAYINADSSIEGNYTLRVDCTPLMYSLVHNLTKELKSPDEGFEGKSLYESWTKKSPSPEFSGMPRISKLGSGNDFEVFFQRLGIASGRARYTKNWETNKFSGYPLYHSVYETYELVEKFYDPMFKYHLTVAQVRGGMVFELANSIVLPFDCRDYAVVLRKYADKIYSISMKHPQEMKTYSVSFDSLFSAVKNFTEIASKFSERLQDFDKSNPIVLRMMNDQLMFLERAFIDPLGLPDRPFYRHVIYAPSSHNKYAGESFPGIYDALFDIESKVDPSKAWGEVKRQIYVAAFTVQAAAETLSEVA
Assay: SPR; 1:1 with mass transfer; range 5-30 nM in triplicate; 20 mM HEPES pH 7.4, 150 mM NaCl, 2 mM CaCl2
Conditions: tags: R&D Systems 4234-ZN-010; chain copies: 2; label: 5'-biotin-spacer9-G
ASSAY METRIC: Kd
Write the quantity with the unit trailing the number.

I have this binder here, GGGACCGAAAAAGACCUGACUUCUAUACUAAGUCUACGUUCCC (ssRNA, 2'-F pyrimidines) [A9g 5'-biotin] , and I need its recorded Kd.
5 nM
